# TARGET: MNK2a (Homo sapiens (Human), UniProt Q9HBH9)
# Sequence (Q9HBH9 whole entry): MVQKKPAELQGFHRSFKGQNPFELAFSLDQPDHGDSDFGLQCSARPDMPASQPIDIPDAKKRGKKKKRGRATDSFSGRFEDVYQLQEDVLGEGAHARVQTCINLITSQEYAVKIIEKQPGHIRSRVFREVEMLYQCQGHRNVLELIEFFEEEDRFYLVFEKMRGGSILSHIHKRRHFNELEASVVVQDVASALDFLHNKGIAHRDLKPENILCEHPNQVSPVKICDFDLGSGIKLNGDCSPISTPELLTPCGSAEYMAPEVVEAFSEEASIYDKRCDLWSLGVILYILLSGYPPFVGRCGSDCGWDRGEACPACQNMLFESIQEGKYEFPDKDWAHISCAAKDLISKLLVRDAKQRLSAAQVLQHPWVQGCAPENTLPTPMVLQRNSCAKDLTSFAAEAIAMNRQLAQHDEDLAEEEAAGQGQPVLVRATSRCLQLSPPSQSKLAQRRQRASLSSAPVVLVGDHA
# ASSAY_PROTOCOL: MNK2a in vitro kinase assay (Assay 2), ADP-Glo
# Type: biochemical
# MEASUREMENT_CONDITIONS: assay 2; read-out: MNK2 IC50
# key: entry, value: IC50
RESULT_TYPE: IC50 (nM)

- COc1cc(N=S2(=O)CCCC2)cc2ncnc(Nc3cccnc3O[C@H]3COC[C@H]3O)c12 (racemic): 21
- Cc1cc(N=S(C)(C)=O)cc2ncnc(Nc3ccc(F)cc3O[C@H]3C[C@@H]4CO[C@H]3C4)c12 (racemic): 3
- COCCO[C@@H]1COC[C@@H]1Oc1cc(F)ccc1Nc1ncnc2cc(N=S(C)(C)=O)cc(C)c12 (racemic): 45
- CS(C)(=O)=Nc1cc(Cl)c2c(Nc3ccc(F)cc3O[C@H]3COC[C@@H]3O)ncnc2c1: 2

---

# key: entry, value: pIC50
# TARGET: MNK1a (Homo sapiens (Human), UniProt Q9BUB5)
# Sequence (Q9BUB5 other isoform, or with tags, fused parts or gaps): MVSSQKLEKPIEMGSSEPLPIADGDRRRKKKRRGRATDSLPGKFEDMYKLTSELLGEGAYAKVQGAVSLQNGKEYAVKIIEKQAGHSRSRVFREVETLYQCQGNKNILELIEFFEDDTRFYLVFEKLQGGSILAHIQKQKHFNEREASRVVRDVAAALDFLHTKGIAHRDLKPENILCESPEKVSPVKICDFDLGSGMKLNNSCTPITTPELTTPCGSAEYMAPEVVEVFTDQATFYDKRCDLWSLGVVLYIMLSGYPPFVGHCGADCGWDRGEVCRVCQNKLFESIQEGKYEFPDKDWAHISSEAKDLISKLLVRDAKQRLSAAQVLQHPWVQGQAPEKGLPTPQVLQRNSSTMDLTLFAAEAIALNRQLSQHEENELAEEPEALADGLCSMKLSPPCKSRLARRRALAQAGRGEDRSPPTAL
pIC50: −log10 of the molar value.
RESULT_TYPE: pIC50

- Cc1cc(N=S2(=O)CCCC2)cc2ncnc(Nc3ccc(F)cc3O[C@H]3COC[C@@H]3O)c12: 7.40
- Cc1cc(N=S2(=O)CCCC2)cc2ncnc(Nc3ccc(Cl)cc3O[C@H]3COC[C@@H]3O)c12: 7.48
- Cc1cc(N=S2(=O)CCCC2)cc2ncnc(Nc3ccc(F)cc3O[C@H]3COC[C@H]3C#N)c12: 6.98
- O=S1(=Nc2cc(Cl)c3c(Nc4ccc(F)cc4O[C@H]4COC[C@@H]4O)ncnc3c2)CCCC1: 7.55
- COc1cc(N=S2(=O)CCC2)cc2ncnc(Nc3cccnc3O[C@H]3COC[C@H]3O)c12 (racemic): 6.98
- O=S1(=Nc2cc(Cl)c3c(Nc4cccnc4O[C@H]4COC[C@@H]4O)ncnc3c2)CCCC1: 7.47
- O=S1(=Nc2cc(F)c3c(Nc4ccc(F)cc4O[C@H]4COC[C@@H]4O)ncnc3c2)CCC1: 7.36

---

# TARGET: MNK2a (Homo sapiens (Human), UniProt Q9HBH9)
# ASSAY_PROTOCOL: MNK2a in vitro kinase assay (Assay 2), ADP-Glo
# Format: biochemical
# MEASUREMENT_CONDITIONS: assay 2; read-out: MNK2 IC50
pIC50: −log10 of the molar value.
# key: entry, value: pIC50
RESULT_TYPE: pIC50

- CO[C@H]1COC[C@@H]1Oc1ncccc1Nc1ncnc2cc(N=S3(=O)CCCC3)cc(C)c12 (racemic) [Example 2.39]: 8.15
- CO[C@@H]1CN(C(C)=O)C[C@H]1Oc1cc(F)ccc1Nc1ncnc2cc(N=S(C)(C)=O)cc(C)c12 [Example 6.1]: 6.41
- CO[C@@H]1CNC[C@H]1Oc1ncccc1Nc1ncnc2cc(N=S3(=O)CCCC3)cc(C)c12 [Example 4.4]: 7.96
- Cc1cc(N=S2(=O)CCCC2)cc2ncnc(Nc3ccc(F)cc3O[C@H]3COC[C@@H]3O)c12 [Example 2.29]: 8.70
- O=S1(=Nc2cc(Cl)c3c(Nc4ccc(F)cc4O[C@H]4COC[C@@H]4O)ncnc3c2)CCC1 [Example 1.7]: 8.70
- Cc1cc(N=S(C)(=O)C(C)C)cc2ncnc(Nc3ccc(F)cc3O[C@H]3COC[C@@H]3O)c12 (stereo partly drawn) [Example 2.74]: 8.15
- Cc1cc(N=S(C)(C)=O)cc2ncnc(Nc3cccnc3O[C@H]3COC[C@@H]3O)c12 [Example 2.28]: 7.96
- CO[C@@H]1CN(C)C[C@H]1Oc1cc(F)ccc1Nc1ncnc2cc(N=S3(=O)CCCC3)cc(C)c12 [Example 11.2]: 7.51
- COc1cc(N=S2(=O)CCC2)cc2ncnc(Nc3ccc(F)cc3O[C@H]3COC[C@@H]3O)c12 [Example 9.10]: 8.52
- Cc1cc(N=S(C)(C)=O)cc2ncnc(Nc3ccc(F)cc3O[C@H]3CNC[C@@H]3O)c12 [Example 3.7]: 7.42
- CS(=O)(=Nc1cc(F)c2c(Nc3ccc(F)cc3O[C@H]3COC[C@@H]3O)ncnc2c1)c1ccncc1 (stereo partly drawn) [Example 2.97]: 7.15
- CO[C@@H]1CN(C)C[C@H]1Oc1ncccc1Nc1ncnc2cc(N=S3(=O)CCCC3)cc(C)c12 [Example 11.3]: 7.92
- COc1cc(N=S(C)(=O)C2CCOCC2)cc2ncnc(Nc3ccc(F)cc3O[C@H]3COC[C@@H]3O)c12 (stereo partly drawn) [Example 9.11]: 7.82
- O=S1(=Nc2cc(Cl)c3c(Nc4ccc(F)cc4O[C@H]4COC[C@@H]4O)ncnc3c2)CCCC1 [Example 1.9]: 8.70
- O=S1(=Nc2cc(Cl)c3c(Nc4ccc(F)cc4O[C@@H]4COC[C@@H]4O)ncnc3c2)CCCC1 (single isomer, unassigned) [Example 14.9]: 8.52
